Source: patent US20070117836A1

assay-notes: in vivo
experimental-conditions: mouse
Catalogue of compounds with associated MTD at 14 days

These recorded examples may help you get a feel for the data.
CN(C)CCN1C(=O)c2cccc3cc(NC(=S)Nc4ccc(Cl)cc4)cc(c23)C1=O
> 80 mg/kg
CN(C)CCN1C(=O)c2cccc3cc([N+](=O)[O-])cc(c23)C1=O [mitonafide, reference compound]
40 mg/kg
CN(C)CCN1C(=O)c2cccc3cc(NCc4ccccc4OC4OC(CO)C(O)C(O)C4O)cc(c23)C1=O (centres unmarked)
> 80 mg/kg
CN(C)CCN1C(=O)c2cccc3cc(NC(=O)C(Cl)(Cl)Cl)cc(c23)C1=O
> 80 mg/kg

Kindly consider the entry below.
[Q] I have this compound here, CN(C)CCN1C(=O)c2cccc3cc(NC(=O)NC(=O)C(Cl)(Cl)Cl)cc(c23)C1=O , and I need its recorded MTD at 14 days.
[A] > 160 mg/kg

----------
assay-notes: in vivo
experimental-conditions: mouse
measure: MTD at 14 days

CN(C)CCN1C(=O)c2cccc3cc(NC(=S)NCc4ccc5c(c4)OCO5)cc(c23)C1=O
> 80 mg/kg
CN(C)CCN1C(=O)c2cccc3cc(N=Cc4cc5c(cc4[N+](=O)[O-])OCO5)cc(c23)C1=O
80 mg/kg
CN(C)CCN1C(=O)c2cccc3cc(NC(=O)NCCCl)cc(c23)C1=O
> 160 mg/kg
CN(C)CCN1C(=O)c2cccc3cc(NCc4cc5c(cc4[N+](=O)[O-])OCO5)cc(c23)C1=O.Cl
> 80 mg/kg
CCOC(=O)NC(=O)Nc1cc2c3c(cccc3c1)C(=O)N(CCN(C)C)C2=O
80 mg/kg
CN(C)CCN1C(=O)c2cccc3cc(N)cc(c23)C1=O [amonafide, reference compound]
40 mg/kg
CN(C)CCN1C(=O)c2cccc3cc(NCc4ccccc4OC4OC(CO)C(O)C(O)C4O)cc(c23)C1=O.Cl (centres unmarked)
> 80 mg/kg

Kindly consider the entry below.
[Q] I have this compound here, CN(C)CCN1C(=O)c2cccc3cc(NCc4ccc5c(c4)OCCO5)cc(c23)C1=O , and I need its recorded MTD at 14 days.
[A] > 80 mg/kg

----------
Test system: Six human cancer cell lines (Hs683, U-373MG, HCT-15, LoVo, A549, MCF-7)
assay-notes: MTT test of overall cell growth
Assay type: cell-based
experimental-conditions: range of molar concentrations giving 50% inhibition of overall tumor cells growth; MTT, 72 hours incubation, six human cancer cell lines; hydrochloride; read-out: IC50
Catalogue of compounds with associated IC50

These recorded examples may help you get a feel for the data.
CN(C)CCN1C(=O)c2cccc3cc(NCc4cc5c(cc4[N+](=O)[O-])OCO5)cc(c23)C1=O.Cl [Example 41, hydrochloride]
5 to 10 µM
CN(C)CCN1C(=O)c2cccc3cc(NC(=O)NC(=O)C(Cl)(Cl)Cl)cc(c23)C1=O.Cl [Example 33, hydrochloride]
5 to 10 µM

Kindly consider the entry below.
[Q] Record CN(C)CCN1C(=O)c2cccc3cc(NCc4ccccc4OC4OC(CO)C(O)C(O)C4O)cc(c23)C1=O.Cl (stereo not drawn) [Example 39, hydrochloride] : what is its IC50 with Six human cancer cell lines (Hs683, U-373MG, HCT-15, LoVo, A549, MCF-7)?
[A] > 10 µM

----------
assay-notes: in vivo
experimental-conditions: mouse, intraperitoneal
measure: MTD at 14 days

These recorded examples may help you get a feel for the data.
CN(C)CCN1C(=O)c2cccc3cc(NC(=O)NC(=O)c4ccccc4)cc(c23)C1=O
80 mg/kg
CN(C)CCN1C(=O)c2cccc3cc(NC(=O)Nc4ccc(C#N)cc4)cc(c23)C1=O
> 160 mg/kg
CN(C)CCN1C(=O)c2cccc3cc(NC(=O)Nc4ccc(OC(F)(F)F)cc4)cc(c23)C1=O
> 160 mg/kg
CN(C)CCN1C(=O)c2cccc3cc(N=Cc4ccc5c(c4)OCO5)cc(c23)C1=O
80 mg/kg
CCOC(=O)c1ccc(NC(=O)Nc2cc3c4c(cccc4c2)C(=O)N(CCN(C)C)C3=O)cc1
> 160 mg/kg
CN(C)CCN1C(=O)c2cccc3cc(/N=C\c4cc(O)ccc4O)cc(c23)C1=O
80 mg/kg
CN(C)CCN1C(=O)c2cccc3cc(NC(=O)Nc4ccc5c(c4)OCO5)cc(c23)C1=O
> 160 mg/kg
CN(C)CCN1C(=O)c2cccc3cc(NC(=O)Nc4ccc(Cl)cc4)cc(c23)C1=O
> 160 mg/kg

Kindly consider the entry below.
[Q] I have this compound here, CCOC(=O)CCC(=O)Nc1cc2c3c(cccc3c1)C(=O)N(CCN(C)C)C2=O , and I need its recorded MTD at 14 days.
[A] > 160 mg/kg
